- targetOrTestSystem: human PDE4A1 (Homo sapiens, UniProt P27815)
- Construct: made in house
- Sequence (P27815 1-647 isoform P27815-4): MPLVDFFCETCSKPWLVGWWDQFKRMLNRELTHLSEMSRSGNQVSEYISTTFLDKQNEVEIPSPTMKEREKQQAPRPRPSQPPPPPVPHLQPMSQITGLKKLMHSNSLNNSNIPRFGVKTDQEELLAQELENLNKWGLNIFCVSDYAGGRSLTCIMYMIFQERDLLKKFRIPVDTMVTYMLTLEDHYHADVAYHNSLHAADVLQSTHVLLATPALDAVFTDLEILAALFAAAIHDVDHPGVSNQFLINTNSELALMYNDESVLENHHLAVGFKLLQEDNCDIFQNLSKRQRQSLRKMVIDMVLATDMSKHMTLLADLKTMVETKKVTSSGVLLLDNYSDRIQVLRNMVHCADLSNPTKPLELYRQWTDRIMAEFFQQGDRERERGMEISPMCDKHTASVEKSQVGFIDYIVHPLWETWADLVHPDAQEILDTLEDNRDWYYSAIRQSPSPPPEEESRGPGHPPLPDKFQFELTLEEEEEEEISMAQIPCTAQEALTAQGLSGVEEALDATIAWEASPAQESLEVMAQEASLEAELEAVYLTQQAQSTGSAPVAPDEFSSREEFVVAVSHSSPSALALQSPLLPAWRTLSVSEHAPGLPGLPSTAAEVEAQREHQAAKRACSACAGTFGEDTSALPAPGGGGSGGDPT
- protocolDescription: Inhibition of cAMP hydrolysis by recombinant human PDE4A1
- Format: biochemical
- runConditions: Table 14; read-out: Human PDE4A1 Ki
propertyLabel: Ki

Some compounds with known Ki results, for comparison:
Entry under test: COc1ccc(F)cc1CCC1CCC(CCNCCCCCN2N=C(c3ccc(OC)c(OC)c3)C3CC=CCC3C2=O)O1 (racemic) [Compound 21] . Its Ki was < 1000 nM

Value of measured Ki for the entry COc1ccc(F)c(CCCC2CCC(CCNCCCCCN3N=C(c4ccc(OC)c(OC)c4)C4CC=CC[C@H]4C3=O)O2)c1 (stereo partly drawn) [Compound 22] : < 1000 nM

As a next step, examine the compound that follows.
response.value for COc1ccc(C2=NNC(=O)[C@@H]3CC=CC[C@H]23)cc1OC (racemic) [Compound 19, reference compound] (field: Ki) = < 1000 nM

Cited source: patent US20130123253A1
